Test: Pharmacokinetic evaluation in plasma after IV and PO administration
Format: in vivo
Settings: female Balb/c mice, PO 10 mg/kg
Measurement Kind: AUMCExtra

Solved cases (3 shown):
Compound	AUMCExtra
CNC(=O)c1cccc(-c2ccc3c(N4CCOC[C@@H]4C)nc(N4CCOC[C@@H]4C)nc3n2)c1 [AZD2014, reference compound]	1.82%
C[C@H]1COCCN1c1nc(N2CCOC3(CC3)C2)nc2nc(-c3cccc(C(N)=O)c3)ccc12	1.02%
CNC(=O)c1cccc(-c2ccc3c(N4CCOC[C@@H]4C)nc(N4CCOC5(CCC5)C4)nc3n2)c1	4.62%

Next, consider the following compound.
Name the reported AUMCExtra value associated with the compound CNC(=O)c1cccc(-c2ccc3c(N4CCOC[C@@H]4C)nc(N4CCOC5(CC5)C4)nc3n2)c1
1.83%

Data provenance: patent US11377444B2
